Just for reference, the RNAGym collection of RNA variant scans (doi:10.1002/anie.201605470) is where these values come from.

B1: Osa-1-4 twister ribozyme (parent)
chain: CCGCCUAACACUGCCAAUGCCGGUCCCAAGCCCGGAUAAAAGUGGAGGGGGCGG

Variants of: B1
Experiment: self-cleavage, relative activity (ratio to wild type); higher = more cleavage; co-transcriptional
Reported values of self-cleavage for individual entries
Simply state the number, no unit and no words.

- Variant Description: "A8C C52U"
  self-cleavage: 0.09
- Variant Description: "G34A G45U"
  self-cleavage: 0.09

Now consider the entry below.
stdin: Any idea what self-cleavage was measured for G22A G49U ?
stdout: 0.09
